Experiment: Metabolic stability in liver microsomes of cynomolgus monkeys
Assay type: in vitro ADME
Conditions: cynomolgus monkey; Cynomolgus monkeys liver microsomes, 1 μM compound, 0.5 mg/mL
property.measured: half-life at 1 μM

Exercise: Any idea what its half-life at 1 μM is? The molecule is CC1(NC(=O)C(=O)c2c(Cl)c(C(=O)Nc3cc(F)c(F)c(F)c3)c3n2CCC3)CCC(CC(=O)O)CC1 (stereo not shown) [Compound of formula (I)]
Solution: > 2.42 h

###

Molecular target: CYP3A4 (Homo sapiens)
Sequence (P08684 whole entry): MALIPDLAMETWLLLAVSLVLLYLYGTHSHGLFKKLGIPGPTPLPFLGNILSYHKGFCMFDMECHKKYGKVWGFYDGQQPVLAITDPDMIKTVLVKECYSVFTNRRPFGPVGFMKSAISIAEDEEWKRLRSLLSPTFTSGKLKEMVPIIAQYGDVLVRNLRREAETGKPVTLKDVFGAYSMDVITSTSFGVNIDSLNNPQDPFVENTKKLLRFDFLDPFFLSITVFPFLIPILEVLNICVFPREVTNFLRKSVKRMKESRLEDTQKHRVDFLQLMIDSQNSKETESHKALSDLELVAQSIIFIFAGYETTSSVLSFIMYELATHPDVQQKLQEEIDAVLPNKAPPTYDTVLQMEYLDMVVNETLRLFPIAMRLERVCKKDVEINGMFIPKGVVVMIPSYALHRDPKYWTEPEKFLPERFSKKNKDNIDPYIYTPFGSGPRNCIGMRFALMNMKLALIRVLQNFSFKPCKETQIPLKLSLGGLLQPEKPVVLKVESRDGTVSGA
pIC50: −log10 of the molar value.
property.measured: pIC50

Exercise: Any idea what its pIC50 is? The compound is CC1(NC(=O)C(=O)c2c(Cl)c(C(=O)Nc3cc(F)c(F)c(F)c3)c3n2CCC3)CCC(CC(=O)O)CC1 (stereo not shown)
Solution: < 4.30

###

Test: Pharmacokinetic study in Balb/c mice by oral administration and intravenous injection
Format: in vivo
Details: mouse; Balb/c female mice, IV 1 mg/kg, plasma; read-out: Area under the plasma concentration-time curve AUC0-24 h
property.measured: AUC(0-t) (µM·h)
Report as a plain number; the unit µM·h is understood.

Exercise: Any idea what its AUC(0-t) is? The compound is CC1(NC(=O)C(=O)c2c(Cl)c(C(=O)Nc3cc(F)c(F)c(F)c3)c3n2CCC3)CCC(CC(=O)O)CC1 (stereo not shown)
Solution: 1.49

###

Assay: Metabolic stability in liver microsomes of SD rats
Type: in vitro ADME
Conditions: rat; SD rats liver microsomes
property.measured: CLint scaled at 1 μM

Exercise: Any idea what its CLint scaled at 1 μM is? The molecule is CC1(NC(=O)C(=O)c2c(Cl)c(C(=O)Nc3cc(F)c(F)c(F)c3)c3n2CCC3)CCC(CC(=O)O)CC1 (stereo not shown)
Solution: < 17.3 mL/min/kg

###

Assay: Metabolic stability in human liver microsomes
Assay type: in vitro ADME
Details: human liver microsomes
property.measured: CLint scaled at 1 μM

Exercise: Any idea what its CLint scaled at 1 μM is? The molecule is CC1(NC(=O)C(=O)c2c(Cl)c(C(=O)Nc3cc(F)c(F)c(F)c3)c3n2CCC3)CCC(CC(=O)O)CC1 (stereo not shown)
Solution: < 8.6 mL/min/kg

###

Assay: Metabolic stability in liver microsomes of cynomolgus monkeys
Assay type: in vitro ADME
Details: cynomolgus monkey, microsomes
property.measured: microsomal CLint at 1 μM

Exercise: Any idea what its microsomal CLint at 1 μM is? The compound is CC1(NC(=O)C(=O)c2c(Cl)c(C(=O)Nc3cc(F)c(F)c(F)c3)c3n2CCC3)CCC(CC(=O)O)CC1 (stereo not shown)
Solution: < 9.6 µL/min/mg

###

Assay: Experiment on cytotoxicity (CellTiter-Glo, 3 days)
Type: cell-based
Details: 3 days incubation, read-out: 50% cytotoxic concentration (CC50)
Experimental: • 1. The compound was diluted with DMSO (dimethyl sulfoxide) in a 3-fold gradient for 9 concentrations, and added into a 96-well plate in duplicate. The compound concentration was 200-fold of the final test concentration. • 2. The cells were rinsed with PBS (phosphate buffered saline) once, added with 0.25% trypsin and digested for about 2-5 min in a 37° C., 5% CO2 incubator. […] The cell density was counted with a cell counter, and adjusted to the required density with the medium. • 4. […]
property.measured: CC50 at 3 days

Exercise: Any idea what its CC50 at 3 days is? The compound is CC1(NC(=O)C(=O)c2c(Cl)c(C(=O)Nc3cc(F)c(F)c(F)c3)c3n2CCC3)CCC(CC(=O)O)CC1 (stereo not shown)
Solution: > 50 µM

###

Molecular target: UniProt:P33261
Sequence (P33261 whole entry): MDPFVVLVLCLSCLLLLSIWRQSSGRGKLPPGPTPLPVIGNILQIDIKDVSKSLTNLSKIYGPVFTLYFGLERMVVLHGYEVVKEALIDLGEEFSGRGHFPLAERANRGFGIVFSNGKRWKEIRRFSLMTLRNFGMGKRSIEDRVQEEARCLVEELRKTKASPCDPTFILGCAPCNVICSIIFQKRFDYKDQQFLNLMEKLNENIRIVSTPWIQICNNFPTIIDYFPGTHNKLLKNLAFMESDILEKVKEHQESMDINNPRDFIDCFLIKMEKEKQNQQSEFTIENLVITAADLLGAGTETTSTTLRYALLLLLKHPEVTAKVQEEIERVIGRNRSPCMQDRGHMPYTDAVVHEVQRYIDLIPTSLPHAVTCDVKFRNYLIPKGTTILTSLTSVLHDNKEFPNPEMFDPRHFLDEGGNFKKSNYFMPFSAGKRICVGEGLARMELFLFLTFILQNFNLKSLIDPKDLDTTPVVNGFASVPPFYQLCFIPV
property.measured: IC50

Exercise: Any idea what its IC50 is? The compound is CC1(NC(=O)C(=O)c2c(Cl)c(C(=O)Nc3cc(F)c(F)c(F)c3)c3n2CCC3)CCC(CC(=O)O)CC1 (stereo not shown)
Solution: > 50 µM

###

Experiment: Metabolic stability in liver microsomes of SD rats
Type: in vitro ADME
Conditions: rat; SD rats liver microsomes, 1 μM compound, 0.5 mg/mL
property.measured: half-life at 1 μM

Exercise: Any idea what its half-life at 1 μM is? The compound is CC1(NC(=O)C(=O)c2c(Cl)c(C(=O)Nc3cc(F)c(F)c(F)c3)c3n2CCC3)CCC(CC(=O)O)CC1 (stereo not shown)
Solution: > 2.42 h

###

Experiment: Liver-to-blood ratio in Balb/c mice orally administered with the test compound
Type: in vivo
Conditions: mouse, liver / plasma; Balb/c female mice, oral administration, 3 mg/kg; read-out: AUC ratio (L/P) Liver/plasma exposure ratio
property.measured: Kp
Answer field: number only, no words.

Exercise: Any idea what its Kp is? The compound is CC1(NC(=O)C(=O)c2c(Cl)c(C(=O)Nc3cc(F)c(F)c(F)c3)c3n2CCC3)CCC(CC(=O)O)CC1 (stereo not shown)
Solution: 24.7

###

Assay: Pharmacokinetic study in Balb/c mice by oral administration and intravenous injection
Assay type: in vivo
Conditions: mouse, 3 mg/kg; Balb/c female mice, PO 3 mpk, plasma; read-out: Area under the plasma concentration-time curve AUC
property.measured: AUC (µM·h)
Report as a plain number; the unit µM·h is understood.

Exercise: Any idea what its AUC is? The compound is CC1(NC(=O)C(=O)c2c(Cl)c(C(=O)Nc3cc(F)c(F)c(F)c3)c3n2CCC3)CCC(CC(=O)O)CC1 (stereo not shown)
Solution: 2.27

###

Test: Metabolic stability in liver microsomes of cynomolgus monkeys
Type: in vitro ADME
Conditions: cynomolgus monkey; Cynomolgus monkeys liver microsomes
property.measured: CLint scaled at 1 μM

Exercise: Any idea what its CLint scaled at 1 μM is? The compound is CC1(NC(=O)C(=O)c2c(Cl)c(C(=O)Nc3cc(F)c(F)c(F)c3)c3n2CCC3)CCC(CC(=O)O)CC1 (stereo not shown) [Compound of formula (I)]
Solution: < 13 mL/min/kg

###

Assay: Metabolic stability in liver microsomes of beagle dogs
Assay type: in vitro ADME
Conditions: beagle, dog, microsomes
property.measured: microsomal CLint at 1 μM

Exercise: Any idea what its microsomal CLint at 1 μM is? The molecule is CC1(NC(=O)C(=O)c2c(Cl)c(C(=O)Nc3cc(F)c(F)c(F)c3)c3n2CCC3)CCC(CC(=O)O)CC1 (stereo not shown) [Compound of formula (I)]
Solution: < 9.6 µL/min/mg

###

Biological target: CYP1A2 (Homo sapiens)
Sequence (P05177 1-516): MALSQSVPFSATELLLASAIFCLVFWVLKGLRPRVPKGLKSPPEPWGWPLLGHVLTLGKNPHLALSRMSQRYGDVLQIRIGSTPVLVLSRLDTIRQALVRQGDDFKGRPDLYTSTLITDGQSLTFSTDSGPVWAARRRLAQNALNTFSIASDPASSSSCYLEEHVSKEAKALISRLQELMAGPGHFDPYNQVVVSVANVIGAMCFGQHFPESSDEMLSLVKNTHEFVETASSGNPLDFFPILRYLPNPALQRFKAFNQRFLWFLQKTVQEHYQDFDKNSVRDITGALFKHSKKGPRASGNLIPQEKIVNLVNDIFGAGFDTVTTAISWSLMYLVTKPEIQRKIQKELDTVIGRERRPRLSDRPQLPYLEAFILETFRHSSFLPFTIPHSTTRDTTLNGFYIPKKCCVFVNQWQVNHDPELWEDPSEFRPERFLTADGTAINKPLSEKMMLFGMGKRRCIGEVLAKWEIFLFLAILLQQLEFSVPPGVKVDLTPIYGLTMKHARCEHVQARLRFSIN
property.measured: IC50

Exercise: Any idea what its IC50 is? The molecule is CC1(NC(=O)C(=O)c2c(Cl)c(C(=O)Nc3cc(F)c(F)c(F)c3)c3n2CCC3)CCC(CC(=O)O)CC1 (stereo not shown) [Compound of formula (I)]
Solution: > 50 µM

###

Assay: Metabolic stability in CD-1 mice liver microsomes
Format: in vitro ADME
Settings: CD-1, mouse, microsomes
property.measured: microsomal CLint at 1 μM

Exercise: Any idea what its microsomal CLint at 1 μM is? The molecule is CC1(NC(=O)C(=O)c2c(Cl)c(C(=O)Nc3cc(F)c(F)c(F)c3)c3n2CCC3)CCC(CC(=O)O)CC1 (stereo not shown)
Solution: < 9.6 µL/min/mg

###

Test: Pharmacokinetic study in Balb/c mice by oral administration and intravenous injection
Format: in vivo
Conditions: mouse; Balb/c female mice, IV 1 mg/kg, plasma; read-out: Half-life T1/2 (converted)
property.measured: half-life (h)
Report as a plain number; the unit h is understood.

Exercise: Any idea what its half-life is? The compound is CC1(NC(=O)C(=O)c2c(Cl)c(C(=O)Nc3cc(F)c(F)c(F)c3)c3n2CCC3)CCC(CC(=O)O)CC1 (stereo not shown)
Solution: 1.95

###

Target: CYP2D6 (Homo sapiens)
Sequence (P10635 whole entry): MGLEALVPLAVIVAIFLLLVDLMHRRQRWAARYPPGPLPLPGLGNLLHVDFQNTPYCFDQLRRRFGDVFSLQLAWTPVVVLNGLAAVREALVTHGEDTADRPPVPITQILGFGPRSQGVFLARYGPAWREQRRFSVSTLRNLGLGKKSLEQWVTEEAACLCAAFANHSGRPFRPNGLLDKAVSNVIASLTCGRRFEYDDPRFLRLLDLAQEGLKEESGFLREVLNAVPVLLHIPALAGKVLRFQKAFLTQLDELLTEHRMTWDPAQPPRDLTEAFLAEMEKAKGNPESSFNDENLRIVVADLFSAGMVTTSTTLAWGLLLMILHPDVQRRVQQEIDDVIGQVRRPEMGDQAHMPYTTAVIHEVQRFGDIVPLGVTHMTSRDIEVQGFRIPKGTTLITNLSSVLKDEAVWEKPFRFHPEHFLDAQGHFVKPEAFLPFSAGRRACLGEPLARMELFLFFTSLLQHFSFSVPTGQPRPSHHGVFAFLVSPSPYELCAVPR
property.measured: IC50

Exercise: Fill in the recorded IC50 for this compound, with CYP2D6 (Homo sapiens) as test system: CC1(NC(=O)C(=O)c2c(Cl)c(C(=O)Nc3cc(F)c(F)c(F)c3)c3n2CCC3)CCC(CC(=O)O)CC1 (stereo not shown) [Compound of formula (I)]
Solution: > 50 µM

The measurements presented in this section are drawn from patent US20230026869A1.
